Response field label takes yes (1) when logP is strictly below 3 and no (0) in all other cases.

1. Cc1cc(C(F)(F)F)nn1CC(=O)N1CCC(c2nc(C3=NOC(c4c(F)cccc4F)C3)cs2)CC1 (configuration not stated) : no (0)
2. O=[N+]([O-])c1ccc(Oc2ccccc2)cc1 : no (0)
3. C=CCN(CC=C)C(=O)C(Cl)Cl : yes (1)
4. CC(=O)Nc1ccccn1 : yes (1)
5. c1ccc2[nH]cnc2c1 : yes (1)
6. CCOC(=O)c1cccnc1 : yes (1)
7. CC(Oc1ccc(Oc2ccc(Cl)cc2Cl)cc1)C(=O)O (configuration not stated) : no (0)
8. C[Si](Cn1cncn1)(c1ccc(F)cc1)c1ccc(F)cc1 : no (0)
9. CC1=CC(=O)CC(C)(C)[C@@]1(O)/C=C/C(C)=C\C(=O)O : yes (1)
10. CCCCc1c(C)nc(NCC)[nH]c1=O : yes (1)
11. CCCCCOC(=O)C(C)Oc1ccc(Oc2ccc(C(F)(F)F)cn2)cc1 (configuration not stated) : no (0)

###

The following compounds are shown together with reported logP values.
Endpoint name: logP

1. COC(=O)c1ccc(Cl)cc1 : 2.81
2. COc1nc(C)nc(NC(=O)NS(=O)(=O)c2ccccc2CCC(F)(F)F)n1 : 2.87
3. CNC(=O)Oc1cccc2c1OC(C)(C)C2 : 1.59
4. Cc1[nH]n(C)c(=O)c1C(=O)c1ccc(C(F)(F)F)cc1S(C)(=O)=O : 0.63
5. Nc1cc(Cl)cc(Cl)c1 : 2.89
6. CCON=C(CC)C1=C(O)CC(c2c(C)cc(C)cc2C)CC1=O (stereo unspecified) : 4.77
7. CC(C)N(C)S(=O)(=O)NC(=O)c1cc(-n2c(=O)cc(C(F)(F)F)n(C)c2=O)c(F)cc1Cl : 2.33
8. CN(C)C(=O)Nc1ccc(Cl)c(Cl)c1 : 2.74
9. CCCCOC(=O)C(C)Oc1ccc(Oc2ccc(C(F)(F)F)cn2)cc1 (stereo unspecified) : 5.01
10. CNC(=O)Oc1ccccc1OC(C)C : 1.55
11. CC(=O)Nc1ccccc1C(F)(F)F : 1.14
12. c1ccc(Sc2ccccc2)cc1 : 4.43
13. CC(C)N1C(=O)c2ccccc2NS1(=O)=O : 2.75
14. CS(=O)(=O)c1ccc(C(=O)C2C(=O)CCCC2=O)c([N+](=O)[O-])c1 : 0.9
15. COc1cc(OC)nc(NC(=O)NS(=O)(=O)c2ncccc2OCC(F)(F)F)n1 : 1.85
16. CCOC(=O)C1CC(=O)C(=C(O)C2CC2)C(=O)C1 (stereo unspecified) : 2.02
17. CCOCn1c(-c2ccc(Cl)cc2)c(C#N)c(Br)c1C(F)(F)F : 5.24
18. CS(=O)(=O)c1ccc(C(=O)C2C(=O)CCCC2=O)c(Cl)c1 : 1.2
19. Oc1cccc2cccnc12 : 1.93
20. O=C(CCl)Nc1ccccc1 : 1.54
21. COc1c(Cl)ccc(Cl)c1C(=O)O : 2.52
22. Cc1cc(C)nc(Nc2ccccc2)n1 : 2.84
23. CC(C)CC(C)c1sccc1NC(=O)c1cn(C)nc1C(F)(F)F (stereo unspecified) : 3.96
24. c1ccc(-c2ccncn2)cc1 : 1.9
25. c1ccc(-c2ccccc2)cc1 : 3.96
26. C#CCOc1ccc(CCNC(=O)C(OCC#C)c2ccc(Cl)cc2)cc1OC (stereo unspecified) : 3.16
